assay: Plasma protein binding in mouse at 10 uM incubated for 6 hrs by equilibrium dialysis based LC-MS/MS method; assay type: ADME, cell-free; details: read-out: PPB (converted)
MEASURE_NAME: fraction unbound at 6 h, 10 µM

{"columns": ["SMILES_INPUT", "VALUE"],
 "data": [
  ["O=C1CCN(c2cc(C(=O)N3CCC(CC4CCN(c5ccc(-c6cnc7[nH]cc(-c8cnn(CC(F)(F)F)c8)c7n6)cn5)CC4)CC3)ccc2Cl)C(=O)N1", 0.0025]
]}

====

experiment: AUC(0 to 24 hrs) in male Sprague-Dawley rat at 30 mg/kg/day, po measured at day 1; assay type: ADME, organism-based; settings: in vivo, time 1 day
MEASURE_NAME: AUC(0-t) at 24 h (ng·h/mL)

{"columns": ["SMILES_INPUT", "VALUE"],
 "data": [
  ["O=C1CCN(c2cc(C(=O)N3CCC(CC4CCN(c5ccc(-c6cnc7[nH]cc(-c8cnn(CC(F)(F)F)c8)c7n6)cn5)CC4)CC3)ccc2Cl)C(=O)N1", 38200]
]}

====

assay: Volume of distribution at steady state in Sprague-Dawley rat at 2 mg/kg, iv measured upto 24 hrs by LC-MS analysis; assay type: ADME, organism-based; settings: in vivo, read-out: Vdss
MEASURE_NAME: Vd (L/kg)

{"columns": ["SMILES_INPUT", "MEASURE_NAME", "UNIT_TAG", "VALUE"],
 "data": [
  ["O=C1CCN(c2cc(C(=O)N3CCC(CC4CCN(c5ccc(-c6cnc7[nH]cc(-c8cnn(CC(F)(F)F)c8)c7n6)cn5)CC4)CC3)ccc2Cl)C(=O)N1", "Vd", "L/kg", 0.834]
]}

====

assay: Clearance in C57BL/6J mouse at 2 mg/kg, iv measured upto 24 hrs by LC-MS analysis; conditions: in vivo

{"columns": ["SMILES_INPUT", "clearance at 24 h, mL/min/kg"],
 "data": [
  ["O=C1CCN(c2cc(C(=O)N3CCC(CC4CCN(c5ccc(-c6cnc7[nH]cc(-c8cnn(CC(F)(F)F)c8)c7n6)cn5)CC4)CC3)ccc2Cl)C(=O)N1", 6]
]}

====

assay: in vivo; conditions: Sprague-Dawley, rat, po, 1 mg/kg

{"columns": ["SMILES_INPUT", "bioavailability at 24 h, %"],
 "data": [
  ["O=C1CCN(c2cc(C(=O)N3CCC(CC4CCN(c5ccc(-c6cnc7[nH]cc(-c8cnn(CC(F)(F)F)c8)c7n6)cn5)CC4)CC3)ccc2Cl)C(=O)N1", 19.2]
]}

====

experiment: in vivo; details: male, Sprague-Dawley, rat, po, 2 mg/kg
MEASURE_NAME: AUC at 336 h (ng·h/mL)

{"columns": ["SMILES_INPUT", "MEASURE_NAME", "VALUE"],
 "data": [
  ["O=C1CCN(c2cc(C(=O)N3CCC(CC4CCN(c5ccc(-c6cnc7[nH]cc(-c8cnn(CC(F)(F)F)c8)c7n6)cn5)CC4)CC3)ccc2Cl)C(=O)N1", "AUC at 336 h", 830]
]}

====

test: Half-life in Sprague-Dawley rat at 1 mg/kg, po measured upto 24 hrs by LC-MS analysis; conditions: in vivo

{"columns": ["SMILES_INPUT", "half-life at 24 h"],
 "data": [
  ["O=C1CCN(c2cc(C(=O)N3CCC(CC4CCN(c5ccc(-c6cnc7[nH]cc(-c8cnn(CC(F)(F)F)c8)c7n6)cn5)CC4)CC3)ccc2Cl)C(=O)N1", "5.15 h"]
]}

====

assay: Half-life in C57BL/6J mouse at 2 mg/kg, iv measured upto 24 hrs by LC-MS analysis; details: in vivo
MEASURE_NAME: half-life at 24 h (h)

{"columns": ["SMILES_INPUT", "VALUE"],
 "data": [
  ["O=C1CCN(c2cc(C(=O)N3CCC(CC4CCN(c5ccc(-c6cnc7[nH]cc(-c8cnn(CC(F)(F)F)c8)c7n6)cn5)CC4)CC3)ccc2Cl)C(=O)N1", 1.17]
]}

====

assay: Plasma protein binding in dog at 10 uM incubated for 6 hrs by equilibrium dialysis based LC-MS/MS method; format: ADME, cell-free, Canis lupus familiaris; conditions: read-out: PPB (converted)
MEASURE_NAME: fraction unbound at 6 h, 10 µM

{"columns": ["SMILES_INPUT", "MEASURE_NAME", "VALUE"],
 "data": [
  ["O=C1CCN(c2cc(C(=O)N3CCC(CC4CCN(c5ccc(-c6cnc7[nH]cc(-c8cnn(CC(F)(F)F)c8)c7n6)cn5)CC4)CC3)ccc2Cl)C(=O)N1", "fraction unbound at 6 h, 10 µM", 0.0004]
]}

====

test: AUCinfinity in Sprague-Dawley rat at 1 mg/kg, po measured upto 24 hrs by LC-MS analysis; assay type: ADME, organism-based; details: in vivo

{"columns": ["SMILES_INPUT", "AUC(0-inf) [ng·h/mL]"],
 "data": [
  ["O=C1CCN(c2cc(C(=O)N3CCC(CC4CCN(c5ccc(-c6cnc7[nH]cc(-c8cnn(CC(F)(F)F)c8)c7n6)cn5)CC4)CC3)ccc2Cl)C(=O)N1", 894]
]}

====

test: AUCinfinity in Beagle dog at 5 mg/kg, po measured upto 24 hrs by LC-MS analysis; format: ADME, organism-based, Canis lupus familiaris; conditions: in vivo

{"columns": ["SMILES_INPUT", "UNIT_TAG", "AUC(0-inf)"],
 "data": [
  ["O=C1CCN(c2cc(C(=O)N3CCC(CC4CCN(c5ccc(-c6cnc7[nH]cc(-c8cnn(CC(F)(F)F)c8)c7n6)cn5)CC4)CC3)ccc2Cl)C(=O)N1", "ng·h/mL", 796]
]}

====

experiment: Toxicity in Sprague-Dawley rat assessed as efficacy dose exposure measured after 14 days; conditions: in vivo

{"columns": ["SMILES_INPUT", "UNIT_TAG", "AUC at 336 h"],
 "data": [
  ["O=C1CCN(c2cc(C(=O)N3CCC(CC4CCN(c5ccc(-c6cnc7[nH]cc(-c8cnn(CC(F)(F)F)c8)c7n6)cn5)CC4)CC3)ccc2Cl)C(=O)N1", "ng·h/mL", 291]
]}

====

assay: Metabolic stability in mouse liver microsomes assessed as intrinsic clearance at 1 uM incubated for 45 mins by LC-MS/MS method; assay type: ADME, Microsome; conditions: read-out: CLH
MEASURE_NAME: microsomal CLint at 1 µM (µL/min/mg)

{"columns": ["SMILES_INPUT", "MEASURE_NAME", "VALUE"],
 "data": [
  ["O=C1CCN(c2cc(C(=O)N3CCC(CC4CCN(c5ccc(-c6cnc7[nH]cc(-c8cnn(CC(F)(F)F)c8)c7n6)cn5)CC4)CC3)ccc2Cl)C(=O)N1", "microsomal CLint at 1 µM", 13.4]
]}

====

test: Initial plasma concentration in Sprague-Dawley rat at 2 mg/kg, iv measured upto 24 hrs by LC-MS analysis; format: ADME, organism-based

{"columns": ["SMILES_INPUT", "C0 at 24 h [ng/mL]"],
 "data": [
  ["O=C1CCN(c2cc(C(=O)N3CCC(CC4CCN(c5ccc(-c6cnc7[nH]cc(-c8cnn(CC(F)(F)F)c8)c7n6)cn5)CC4)CC3)ccc2Cl)C(=O)N1", 3380]
]}

====

assay: in vivo; details: female, Sprague-Dawley, rat, po, 30 mg/kg

{"columns": ["SMILES_INPUT", "AUC at 336 h (ng·h/mL)"],
 "data": [
  ["O=C1CCN(c2cc(C(=O)N3CCC(CC4CCN(c5ccc(-c6cnc7[nH]cc(-c8cnn(CC(F)(F)F)c8)c7n6)cn5)CC4)CC3)ccc2Cl)C(=O)N1", 46000]
]}

====

experiment: Cmax in mouse at 10 mg/kg, po measured upto 24 hrs by LC-MS analysis; type: ADME, organism-based; details: in vivo

{"columns": ["SMILES_INPUT", "UNIT_TAG", "Cmax"],
 "data": [
  ["CCN1CCC(n2cc(-c3c[nH]c4ncc(-c5ccc(N6CCC(CC7CCN(C(=O)c8ccc(Cl)c(N9CCC(=O)NC9=O)c8)CC7)CC6)nc5)nc34)cn2)CC1", "ng/mL", 81.6],
  ["O=C1CCN(c2cc(C(=O)N3CCC(CC4CCN(c5ccc(-c6cnc7[nH]cc(-c8cnn(CCF)c8)c7n6)cn5)CC4)CC3)ccc2Cl)C(=O)N1", "ng/mL", 4680],
  ["Cn1cc(-c2c[nH]c3ncc(-c4ccc(N5CCC(CC6CCN(C(=O)c7ccc(Cl)c(N8CCC(=O)NC8=O)c7)CC6)CC5)nc4)nc23)cn1", "ng/mL", 840]
]}

====

target: Protein cereblon/Mitogen-activated protein kinase kinase kinase kinase 1 (Homo sapiens, UniProt Q92918+Q96SW2); experiment: PROTAC activity at CRBN/HPK1 in human Jurkat cells assessed as maximum degradation incubated for 24 hrs by Western blotting analysis; assay type: cell-based
Sequence (Q92918 whole entry, looked up): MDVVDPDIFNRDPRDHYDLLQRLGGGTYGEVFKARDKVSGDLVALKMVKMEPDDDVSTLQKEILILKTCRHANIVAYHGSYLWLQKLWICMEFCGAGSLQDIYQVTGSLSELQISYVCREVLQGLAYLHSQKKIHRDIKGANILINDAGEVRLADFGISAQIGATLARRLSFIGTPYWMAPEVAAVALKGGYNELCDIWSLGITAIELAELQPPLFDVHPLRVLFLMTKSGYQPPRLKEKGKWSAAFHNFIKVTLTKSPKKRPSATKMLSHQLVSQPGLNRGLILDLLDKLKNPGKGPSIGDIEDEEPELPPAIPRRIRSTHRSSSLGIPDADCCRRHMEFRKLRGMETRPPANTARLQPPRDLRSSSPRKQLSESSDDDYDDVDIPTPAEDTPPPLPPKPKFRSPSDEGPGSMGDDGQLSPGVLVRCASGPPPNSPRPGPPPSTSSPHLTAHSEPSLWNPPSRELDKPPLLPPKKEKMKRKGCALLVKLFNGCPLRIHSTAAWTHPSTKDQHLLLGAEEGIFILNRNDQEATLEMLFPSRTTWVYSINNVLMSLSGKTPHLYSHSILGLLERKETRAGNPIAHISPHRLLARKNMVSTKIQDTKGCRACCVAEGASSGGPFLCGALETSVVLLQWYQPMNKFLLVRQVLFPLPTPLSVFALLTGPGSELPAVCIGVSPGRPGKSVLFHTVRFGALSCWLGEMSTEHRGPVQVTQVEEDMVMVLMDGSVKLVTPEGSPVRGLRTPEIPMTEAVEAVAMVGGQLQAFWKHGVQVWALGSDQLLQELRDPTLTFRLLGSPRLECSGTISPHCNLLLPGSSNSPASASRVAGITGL
Sequence (Q96SW2 whole entry, looked up): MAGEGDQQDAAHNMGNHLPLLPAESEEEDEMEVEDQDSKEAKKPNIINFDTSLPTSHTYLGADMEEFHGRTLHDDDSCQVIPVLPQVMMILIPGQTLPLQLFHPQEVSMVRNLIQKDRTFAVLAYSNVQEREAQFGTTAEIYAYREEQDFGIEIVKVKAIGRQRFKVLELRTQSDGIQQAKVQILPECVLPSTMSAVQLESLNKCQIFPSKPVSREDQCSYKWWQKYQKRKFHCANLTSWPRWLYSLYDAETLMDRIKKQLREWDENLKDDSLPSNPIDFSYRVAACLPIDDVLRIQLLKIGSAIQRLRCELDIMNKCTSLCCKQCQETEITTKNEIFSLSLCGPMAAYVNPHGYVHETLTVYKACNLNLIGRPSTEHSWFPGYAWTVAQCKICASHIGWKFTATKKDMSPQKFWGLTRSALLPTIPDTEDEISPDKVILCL
# Emax values compiled below
MEASURE_NAME: Emax (%)

{"columns": ["COMPOUND", "MEASURE_NAME", "VALUE"],
 "data": [
  ["CCN1CCC(n2cc(-c3c[nH]c4ncc(-c5ccc(N6CCC(CC7CCCN(C(=O)c8ccc(Cl)c(N9CCC(=O)NC9=O)c8)CC7)CC6)nc5)nc34)cn2)CC1 (stereo not drawn)", "Emax", 56],
  ["CCN1CCC(n2cc(-c3c[nH]c4ncc(-c5ccc(N6CCC(CN7CCN(C(=O)c8ccc(Cl)c(N9CCC(=O)NC9=O)c8)CC7)CC6)nc5)nc34)cn2)CC1", "Emax", 77],
  ["CCN1CCC(n2cc(-c3c[nH]c4ncc(-c5ccc(N6CCC(OC7CCN(C(=O)c8ccc(Cl)c(N9CCC(=O)NC9=O)c8)CC7)CC6)cc5)nc34)cn2)CC1", "Emax", 52]
]}
